We begin with a simple list: items and their reported pEC50.
- System: genotype 1a-H77 subgenomic replicon cell line
- experimentSummary: microbe, parasite or virus in culture
- Assay type: cell-based, HCV
- conditionNotes: Hepatitis C virus, read-out: EC50 1a
pEC50: −log10 of the molar value.
attributeMeasured: pEC50

INSERT INTO assay_data (itemsmiles, valuemeasured) VALUES
  ('COc1c(C#Cc2ccc(NS(C)(=O)=O)c(OC(F)(F)F)c2)cc(N2CCC(=O)NC2=O)cc1C(C)(C)C', '6.00 to 7.00'),
  ('COc1c(C#Cc2ccc(NS(C)(=O)=O)cc2NC(C)=O)cc(-n2ccc(=O)[nH]c2=O)cc1C(C)(C)C', '6.00 to 7.00'),
  ('CCOC(=O)c1cc(NS(C)(=O)=O)ccc1/C=C/c1cc(-n2ccc(=O)[nH]c2=O)cc(C(C)(C)C)c1OC', '7.00 to 8.00'),
  ('CCNC(=O)CN1C(=O)CCN(c2cc(C(=O)Nc3ccc(N(CC(=O)NCC)S(C)(=O)=O)cc3)c(OC)c(C(C)(C)C)c2)C1=O', '< 6.00'),
  ('COc1c(-c2ccc3cc(NS(C)(=O)=O)ccc3c2)cc(-n2ccc(=O)[nH]c2=O)cc1-c1ccc(C)o1', '7.00 to 8.00'),
  ('COc1c(/C=C(\F)c2ccc(NS(C)(=O)=O)cc2)cc(N2CCC(=O)NC2=O)cc1C(C)(C)C', '> 8.00'),
  ('COc1c(/C=C/c2ccc(NS(C)(=O)=O)c(F)c2)cc(N2CCC(=O)NC2=O)cc1C(C)(C)C', '7.00 to 8.00'),
  ('COc1c(CNc2ccc(NS(C)(=O)=O)cc2)cc(N2CCC(=O)NC2=O)cc1C(C)(C)C', '< 6.00'),
  ('COc1c(-c2nc3cc(NS(C)(=O)=O)ccc3s2)cc(N2CCC(=O)NC2=O)cc1C(C)(C)C', '< 6.00'),
  ('CC(C)(C)c1cc(C#Cc2ccc(NS(C)(=O)=O)cc2)cc(N2CCC(=O)NC2=O)c1', '6.00 to 7.00'),
  ('CC(C)(C)c1cc(N2CCC(=O)NC2=O)cc(C(=O)Nc2ccc(OCC(N)=O)cc2)c1O', '< 6.00'),
  ('COc1c(-c2ccc3cc(NS(C)(=O)=O)ccc3c2)cc(-n2ccc(=O)[nH]c2=O)cc1-c1cccs1', '6.00 to 7.00'),
  ('COc1c(-c2ccc3c(c2)CNC3=O)cc(-n2ccc(=O)[nH]c2=O)cc1C(C)(C)C', '6.00 to 7.00'),
  ('CN(Cc1csc(NC(=O)c2cc(N3CCC(=O)NC3=O)cc(C(C)(C)C)c2O)c1)S(C)(=O)=O', '< 6.00'),
  ('COc1c(N2CCc3cc(NS(C)(=O)=O)ccc3C2)cc(-n2ccc(=O)[nH]c2=O)cc1C(C)(C)C', '7.00 to 8.00');

###

- System: genotype 1b-Con1 subgenomic replicon cell line
- experimentSummary: microbe, parasite or virus in culture
- Assay type: cell-based, HCV
- conditionNotes: read-out: EC50 1b
attributeMeasured: EC50

INSERT INTO results (itemsmiles, attributemeasured, valuemeasured) VALUES
  ('COc1c(/C=C\c2ccc(NS(C)(=O)=O)cc2)cc(N2CCC(=O)NC2=O)cc1C(C)(C)C', 'EC50', '10 to 100 nM');

Data provenance: patent US8415351B2
